meta.source: patent US7091202B2

# target.under.test: hQ23 (HEK-293 cell line stably transfected with one of the members of the KCNQ family) (Homo sapiens, UniProt O43525+O43526)
# Construct: expressed in transfected cells; host or cells: HEK-293, stably transfected
# Sequence (O43526 whole entry): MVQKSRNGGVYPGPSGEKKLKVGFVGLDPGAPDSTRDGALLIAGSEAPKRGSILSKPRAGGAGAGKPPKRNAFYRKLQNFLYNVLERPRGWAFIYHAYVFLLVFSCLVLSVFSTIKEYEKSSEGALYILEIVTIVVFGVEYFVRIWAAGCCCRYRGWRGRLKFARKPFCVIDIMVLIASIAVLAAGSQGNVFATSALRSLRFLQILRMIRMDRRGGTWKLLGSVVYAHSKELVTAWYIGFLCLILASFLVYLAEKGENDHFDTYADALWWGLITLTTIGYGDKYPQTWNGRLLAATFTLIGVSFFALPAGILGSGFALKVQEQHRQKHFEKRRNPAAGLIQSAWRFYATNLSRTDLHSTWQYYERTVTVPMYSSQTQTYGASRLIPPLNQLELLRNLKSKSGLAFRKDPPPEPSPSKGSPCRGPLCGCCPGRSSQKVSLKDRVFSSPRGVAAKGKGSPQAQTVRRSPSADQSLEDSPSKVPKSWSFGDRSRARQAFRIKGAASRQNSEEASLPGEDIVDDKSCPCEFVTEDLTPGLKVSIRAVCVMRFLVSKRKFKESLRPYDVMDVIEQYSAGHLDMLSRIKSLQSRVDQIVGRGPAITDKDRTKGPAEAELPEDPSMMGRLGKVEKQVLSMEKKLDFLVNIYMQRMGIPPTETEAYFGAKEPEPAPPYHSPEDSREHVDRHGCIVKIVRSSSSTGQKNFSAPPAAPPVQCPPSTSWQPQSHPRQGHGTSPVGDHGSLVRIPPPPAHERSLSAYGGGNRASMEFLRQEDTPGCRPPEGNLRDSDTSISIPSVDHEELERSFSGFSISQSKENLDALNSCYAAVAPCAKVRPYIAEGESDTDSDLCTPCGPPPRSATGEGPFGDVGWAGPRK
# Sequence (O43525 whole entry): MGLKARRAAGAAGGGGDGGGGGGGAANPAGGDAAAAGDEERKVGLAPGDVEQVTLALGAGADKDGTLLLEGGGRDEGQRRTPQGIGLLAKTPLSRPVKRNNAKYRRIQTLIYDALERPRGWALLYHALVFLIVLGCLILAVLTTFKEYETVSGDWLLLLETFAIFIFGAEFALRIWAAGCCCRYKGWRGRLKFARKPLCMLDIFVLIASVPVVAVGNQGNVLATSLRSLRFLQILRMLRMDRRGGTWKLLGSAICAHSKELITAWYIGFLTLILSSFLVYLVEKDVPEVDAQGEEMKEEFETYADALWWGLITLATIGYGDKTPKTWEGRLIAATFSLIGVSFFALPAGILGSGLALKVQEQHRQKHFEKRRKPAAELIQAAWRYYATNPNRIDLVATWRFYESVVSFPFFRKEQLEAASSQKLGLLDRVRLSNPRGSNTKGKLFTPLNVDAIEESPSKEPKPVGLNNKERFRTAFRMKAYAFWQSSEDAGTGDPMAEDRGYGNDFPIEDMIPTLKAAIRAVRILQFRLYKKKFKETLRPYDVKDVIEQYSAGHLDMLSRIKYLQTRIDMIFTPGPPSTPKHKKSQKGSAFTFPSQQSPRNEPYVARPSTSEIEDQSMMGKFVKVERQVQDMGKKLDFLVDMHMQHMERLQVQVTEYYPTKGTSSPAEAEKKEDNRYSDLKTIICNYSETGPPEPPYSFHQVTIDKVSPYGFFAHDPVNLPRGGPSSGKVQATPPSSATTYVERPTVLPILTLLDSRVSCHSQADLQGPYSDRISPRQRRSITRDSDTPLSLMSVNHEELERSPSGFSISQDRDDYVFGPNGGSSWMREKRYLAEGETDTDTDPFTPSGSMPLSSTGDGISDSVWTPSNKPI
# method.notes: Thallium flux assay for KCNQ channel blockers (FLIPR, BTC dye)
# Assay type: cell-based
# settings: hQ23 cells, thallium flux assay
measure: EC50 (µM)

CC1CCC(Nc2ncc(C(=O)NCc3ccc(F)cc3F)c(C3(c4ccc(F)cc4)CCCC3)n2)CC1 (centres unmarked) [Example 267]
0.048
CC1CCC(Nc2ncc(C(=O)NC(C)c3ccc(F)cc3)c(C3(c4ccc(F)cc4)CCCC3)n2)CC1 (centres unmarked) [Example 281]
0.118
CN(C)CCNc1ncc(C(=O)NCc2ccc(F)cc2F)c(C2(c3ccc(F)cc3)CCCC2)n1 [Example 272]
0.967
CCN(Cc1ccccc1)C(=O)c1cnc(NC2CCCC2)nc1C1(c2ccc(F)cc2)CCCC1 [Example 232]
0.46
CN(C)CCNc1ncc(C(=O)NCc2ccc3c(c2)OCO3)c(C2(c3ccc(F)cc3)CCCC2)n1 [Example 239]
0.792
CC1CCCN(c2ncc(C(=O)NCc3ccc(F)cc3F)c(C3(c4ccc(F)cc4)CCCC3)n2)C1 (centres unmarked) [Example 269]
0.056

[a] CC1CCN(c2ncc(C(=O)NCc3ccc(F)cc3F)c(C3(c4ccc(F)cc4)CCCC3)n2)CC1 [Example 270]
[b] CCC(C)Nc1ncc(C(=O)NCc2cccc3ccccc23)c(C2(c3ccc(F)cc3)CCCC2)n1 (centres unmarked) [Example 252]
Task: // pick larger EC50 from pair: a vs b Respond using the label that marks the chosen record.
Output: b
(b: 0.35 µM, a: 0.142 µM)
